# test summary: soluble on expression in E. coli; label from the status in PepcDB or PDB records
recorded endpoint: soluble on expression in E. coli

MSLIITDDHMHLYNHLKLKALEQFRDAGGTHVFLVNLLCHHYGIRPTSGKDFREVFERHLSLVEKANKIVKAYAVLGVHPAEITVIGDRIGHEKAAEMMKEALEIAGKYVEEGKAVALKSGRPHYPVSRHVWQLSNDVLRHAFEVAKDVGCAIQLHTESYTKEGMLEIAKMADEVGLKREKVVKHFSPPLIKEFEEIGIFPSVLAGNNNVLKAAEQGNRFTVETDYIDDRKRPGAVLGPKTVPRKVKELIELGYEDIAYKICVENVEKVYGVELEEEGHHHHHH :: soluble
MIKDLVRPELQKLVPYVSHQVPYRIKLDANESPFELPESIRKKLADYFLKGPGLNIYPDNESVELRKTIAKYWNVDADEVIVGTGSNQLIQLIITVFVGKGEKVLYPWPTFSMYKINTLIAGGEPVAFPLDKEKDFVLDTDKFIEAVKTENAKVVFLCNPNNPTGGLVPLEHIEKIVKECKSSIIVVDEAYAEFCPQSVIPLVKKYENLVVLRTFSKAYLLAGARCGYSISGIEIANEINKVRPTYNVSSLTQLIAKMVFEEQEEMQKMIRYLIEQRGELEKSLKKIKDVCIYPSHANYILVKVPEAEMISKELQKRGILIRSFPNDPVLYDCIRITVGTKEQNDIFLEEFSDIINNF :: not soluble
MNGVYDVGGTDGLGPINRPADEPVFRAEWEKVAFAMFPATFRAGFMGLDEFRFGIEQMNPAEYLESPYYWHWIRTYIHHGVRTGKIDLEELERRTQYYRENPDAPLPEHEQKPELIEFVNQAVYGGLPASREVDRPPKFKEGDVVRFSTASPKGHARRARYVRGKTGTVVKHHGAYIYPDTAGNGLGECPEHLYTVRFTAQELWGPEGDPNSSVYYDCWEPYIELVDT :: soluble
SLEECVCENYKLAVNCFVNNNRQCQCTSVGAQNTVICSKLAAKCLVMKAEMNGSKLGRRAKPEGALQNNDGLYDPDCDESGLFKAKQCNGTSTCWCVNTAGVRRTDKDTEITCSERVRTYWIIIELKHKAREKPYDSKSLRTALQKEITTRYQLDPKFITSILYENNVITIDLVQNSSQKTQNDVDIADVAYYFEKDVKGESLFHSKKMDLTVNGEQLDLDPGQTLIYYVDEKAPEFSEG :: not soluble
